B1: scFv; the commonest letter at each place (parent)
chain 1: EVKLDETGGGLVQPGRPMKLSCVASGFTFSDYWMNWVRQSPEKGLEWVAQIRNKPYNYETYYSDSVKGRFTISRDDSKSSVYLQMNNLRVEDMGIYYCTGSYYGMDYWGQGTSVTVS
chain 2: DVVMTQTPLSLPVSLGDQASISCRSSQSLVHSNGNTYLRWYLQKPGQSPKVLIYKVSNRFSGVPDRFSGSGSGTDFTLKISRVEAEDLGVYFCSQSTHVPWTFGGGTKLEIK

# Variants of: B1
# ASSAY INFO: Kd (Tite-Seq)
# EXPERIMENTAL SETUP: with fluorescein; format: scFv 4-4-20, heavy + light
pKd: −log10 of the molar value.
Catalogue of pKd readings, one per entry.

# annotated cases, reported pKd shown
residue_change="chain 1 Y32V V37L" experimental_readout=pKd result="≤ 5.00"
residue_change="chain 1 G104C" experimental_readout=pKd result="≤ 5.00"
residue_change="chain 1 Y103M D106G" experimental_readout=pKd result="≤ 5.00"
residue_change="chain 1 F29I Y32K" experimental_readout=pKd result=8.65

Here is the next item to consider.
Req: Given chain 1 Y102P G104Y W108S , respond with its pKd.
Resp: ≤ 5.00
